# study-system: T1, human GIP receptor (human) (UniProt P48546)
# T1 sequence (looked up): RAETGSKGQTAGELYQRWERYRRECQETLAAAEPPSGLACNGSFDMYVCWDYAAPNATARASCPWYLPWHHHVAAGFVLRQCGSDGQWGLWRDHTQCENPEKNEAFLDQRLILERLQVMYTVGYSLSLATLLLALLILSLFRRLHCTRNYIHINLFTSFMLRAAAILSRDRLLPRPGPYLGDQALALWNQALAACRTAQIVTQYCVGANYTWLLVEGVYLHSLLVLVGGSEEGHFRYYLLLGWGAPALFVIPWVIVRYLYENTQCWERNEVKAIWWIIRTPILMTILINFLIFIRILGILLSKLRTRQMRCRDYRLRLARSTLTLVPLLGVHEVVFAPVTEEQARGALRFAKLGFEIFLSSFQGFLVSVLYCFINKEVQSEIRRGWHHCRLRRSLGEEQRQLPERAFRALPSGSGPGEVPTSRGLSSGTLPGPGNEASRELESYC
# protocol-details: cell-based or functional assay
experimental-readout: cAMP Rel EC50, nM (in the presence of 1% HSA) (nM)
Give just the numeric value; nM need not be written.

# count of solved cases: 10
YXQGTFTSDFSXXLDKKAQXAFIEYLLAGGPSSGAPPPEGE (synthetic construct; SITE 2: note = 2-Aminoisobutyric Acid; SITE 12: note = L-ornithine; SITE 13: note = alpha-methyl-leucine; SITE 17: note = Lysine is chemically modified through conjugation of the epsilon-amino group of the Lysine side chain with (2-[2-(2-Amino-ethoxy)-ethoxy]-acetyl)-(gamma-Glu)) [Example 99]
29.5
YXQGTFTSDFSKXLDKKAQXAFIEYLLEGGPSSGAPPPSEGX (synthetic construct; SITE 2: note = 2-Aminoisobutyric Acid; SITE 13: note = alpha-methyl-leucine; SITE 17: note = Lysine is chemically modified through conjugation of the epsilon-amino group of the Lysine side chain with (2-[2-(2-Amino-ethoxy)-ethoxy]-acetyl)-(gamma-Glu)-CO-(CH2) 16-CO2H; SITE 20: n) [Example 56]
30.3
YXQGTFTSDFSXXLDKKAQXAFIEYLLEXGPSSGAPPPSGE (synthetic construct; SITE 2: note = 2-Aminoisobutyric Acid; SITE 12: note = L-ornithine; SITE 13: note = alpha-methyl-leucine; SITE 17: note = Lysine is chemically modified through conjugation of the epsilon-amino group of the Lysine side chain with (2-[2-(2-Amino-ethoxy)-ethoxy]-acetyl)2-(gamma-Glu)) [Example 111]
10.4
YXQGTFTSDXSRXLDKKAQXAFIEYLLEXGESSGAPPPSGS (synthetic construct; SITE 2: note = 2-Aminoisobutyric Acid; SITE 10: note = 3-(4-Pyridyl)-L-alanine; SITE 13: note = alpha-methyl-leucine; SITE 17: note = Lysine is chemically modified through conjugation of the epsilon-amino group of the Lysine side chain with (2-[2-(2-Amino-ethoxy)-ethoxy]-acetyl)) [Example 132]
25.9
YXQGTFTSDFSXXLDKKAQXAFIEYLLEGGPSSGAPPPGGS (synthetic construct; SITE 2: note = 2-Aminoisobutyric Acid; SITE 12: note = L-ornithine; SITE 13: note = alpha-methyl-leucine; SITE 17: note = Lysine is chemically modified through conjugation of the epsilon-amino group of the Lysine side chain with (2-[2-(2-Amino-ethoxy)-ethoxy]-acetyl)-(gamma-Glu)) [Example 62]
31.2
YXQGTFTSDFSXXLDKKAQXAFIEWLLAGGPSSGEPPPSGE (synthetic construct; SITE 2: note = 2-Aminoisobutyric Acid; SITE 12: note = L-ornithine; SITE 13: note = alpha-methyl-leucine; SITE 17: note = Lysine is chemically modified through conjugation of the epsilon-amino group of the Lysine side chain with (2-[2-(2-Amino-ethoxy)-ethoxy]-acetyl)-(gamma-Glu)) [Example 103]
35.1
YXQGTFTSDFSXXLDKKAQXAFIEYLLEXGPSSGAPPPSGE (synthetic construct; SITE 2: note = 2-Aminoisobutyric Acid; SITE 12: note = L-ornithine; SITE 13: note = alpha-methyl-leucine; SITE 17: note = Lysine is chemically modified through conjugation of the epsilon-amino group of the Lysine side chain with (2-[2-(2-Amino-ethoxy)-ethoxy]-acetyl)-(gamma-Glu)) [Example 110]
19.8
YXQGTFTSDFSXXLDKKAQXAFIEWLLEGGPSSGAPPPEGS (synthetic construct; SITE 2: note = 2-Aminoisobutyric Acid; SITE 12: note = L-ornithine; SITE 13: note = alpha-methyl-leucine; SITE 17: note = Lysine is chemically modified through conjugation of the epsilon-amino group of the Lysine side chain with (2-[2-(2-Amino-ethoxy)-ethoxy]-acetyl)-(gamma-Glu)) [Example 121]
24.6
YXQGTFTSDFSXXLDKKAQXAFIEWLLEGGPSSGAPPPSGS (synthetic construct; SITE 2: note = 2-Aminoisobutyric Acid; SITE 12: note = L-ornithine; SITE 13: note = alpha-methyl-leucine; SITE 17: note = Lysine is chemically modified through conjugation of the epsilon-amino group of the Lysine side chain with (2-[2-(2-Amino-ethoxy)-ethoxy]-acetyl)-(gamma-Glu)) [Example 78]
78.4
YXQGTFTSDFSXXLDKKAQXAFIEYLLEGGPSSGAPPPGGSG (synthetic construct; SITE 2: note = 2-Aminoisobutyric Acid; SITE 12: note = L-ornithine; SITE 13: note = alpha-methyl-leucine; SITE 17: note = Lysine is chemically modified through conjugation of the epsilon-amino group of the Lysine side chain with (2-[2-(2-Amino-ethoxy)-ethoxy]-acetyl)-(gamma-Glu)) [Example 64]
24.9

Qu. Give the value of cAMP Rel EC50, nM (in the presence of 1% HSA) reported for the following: YXQGTFTSDXSRXLDKKAQXAFIEYLLAGGPSSGAPPPSGE (synthetic construct; SITE 2: note = 2-Aminoisobutyric Acid; SITE 10: note = 3-(4-Pyridyl)-L-alanine; SITE 13: note = alpha-methyl-leucine; SITE 17: note = Lysine is chemically modified through conjugation of the epsilon-amino group of the Lysine side chain with (2-[2-(2-Amino-ethoxy)-ethoxy]-acetyl)) [Example 113]
Ans. 32.3

Qu. Give the value of cAMP Rel EC50, nM (in the presence of 1% HSA) reported for the following: YXQGTFTSDFSXXLDKKAQXAFIEWLLEGGESSGEPPPSGE (synthetic construct; SITE 2: note = 2-Aminoisobutyric Acid; SITE 12: note = L-ornithine; SITE 13: note = alpha-methyl-leucine; SITE 17: note = Lysine is chemically modified through conjugation of the epsilon-amino group of the Lysine side chain with (2-[2-(2-Amino-ethoxy)-ethoxy]-acetyl)-(gamma-Glu)) [Example 123]
Ans. 94.6

Qu. Give the value of cAMP Rel EC50, nM (in the presence of 1% HSA) reported for the following: YXQGTFTSDFSXXLDKKAQXAFIEYLLAGGPSSGAPPPSGS (synthetic construct; SITE 2: note = 2-Aminoisobutyric Acid; SITE 12: note = L-ornithine; SITE 13: note = alpha-methyl-leucine; SITE 17: note = Lysine is chemically modified through conjugation of the epsilon-amino group of the Lysine side chain with (2-[2-(2-Amino-ethoxy)-ethoxy]-acetyl)-(gamma-Glu)) [Example 76]
Ans. 45.5

Qu. Give the value of cAMP Rel EC50, nM (in the presence of 1% HSA) reported for the following: YXQGTFTSDFSRXLDKKAQXAFIEYLLEXGPSSGAPPPSGS (synthetic construct; SITE 2: note = 2-Aminoisobutyric Acid; SITE 13: note = alpha-methyl-leucine; SITE 17: note = Lysine is chemically modified through conjugation of the epsilon-amino group of the Lysine side chain with (2-[2-(2-Amino-ethoxy)-ethoxy]-acetyl)2-(gamma-Glu)-CO-(CH2 )16-CO2H; SITE 20:) [Example 80]
Ans. 10.1

Qu. Give the value of cAMP Rel EC50, nM (in the presence of 1% HSA) reported for the following: YXQGTFTSDFSXXLDKKAQXAFIEYLLEGGPSSGEPPPSGS (synthetic construct; SITE 2: note = 2-Aminoisobutyric Acid; SITE 12: note = L-ornithine; SITE 13: note = alpha-methyl-leucine; SITE 17: note = Lysine is chemically modified through conjugation of the epsilon-amino group of the Lysine side chain with (2-[2-(2-Amino-ethoxy)-ethoxy]-acetyl)-(gamma-Glu)) [Example 131]
Ans. 91.8

Qu. Give the value of cAMP Rel EC50, nM (in the presence of 1% HSA) reported for the following: YXQGTFTSDFSXXLDKKAQXAFIEYLLEXGPSSGEPPPGEG (synthetic construct; SITE 2: note = 2-Aminoisobutyric Acid; SITE 12: note = L-ornithine; SITE 13: note = alpha-methyl-leucine; SITE 17: note = Lysine is chemically modified through conjugation of the epsilon-amino group of the Lysine side chain with (2-[2-(2-Amino-ethoxy)-ethoxy]-acetyl)2-(gamma-Glu)) [Example 69]
Ans. 25.6
